B1: EPB41L3 (parent)
chain: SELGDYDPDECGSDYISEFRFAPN

Variants of: B1
Experiment: protein stability index of a GFP-peptide fusion (GPS, HEK-293T) (PSI 1-6); higher = more stable;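 also: lentivirally expressed fusions sorted by FACS into six bins by GFP to DsRed ratio, PSI derived from sequencing read proportions per bin multiplied by bin number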
Conditions: c terminus: a fixed tail appended
ATTRIBUTE_MEASURED: protein stability index
Lab note: record just the number, no unit beside it.

1) SELGDYDPDECGSDYISEFEFAPN	5.02
2) SELGDYDPDECGFDYISEFRFAPN	2.11
3) SEHGDYDPDECGSDYISEFRFAPN	1.74

Sure, the documented protein stability index for `SELGDYDPDECGSDYISEIRFAPN` is 4.67

Sure, the documented protein stability index for `SELGDYDPMECGSDYISEFRFAPN` is 2.01

Sure, the documented protein stability index for `SELGDPDPDECGSDYISEFRFAPN` is 2.13

Sure, the documented protein stability index for `SELGDYDPKECGSDYISEFRFAPN` is 2.05

Sure, the documented protein stability index for `SELGHYDPDECGSDYISEFRFAPN` is 1.79

Sure, the documented protein stability index for `SELGDYDPIECGSDYISEFRFAPN` is 1.32
